method_description: orientative acute toxicity (LD50), p.o. mice
condition_context: mouse, in vivo, po
endpoint: LD50

Data request: Look up LD50 of "CO[C@]12C[C@@H](COC(=O)C3=CN(C)C=CC3)CN(C)[C@@H]1Cc1cn(C)c3cccc2c13" and report it.
Data returned: > 800 mg/kg

Reference source: patent US4785001A
